- procedureDetails: NCI Yeast Anticancer Drug Screen. Data for the mec2-1 strain (AID 157)
- conditionNotes: S. cerevisiae mec2-1 strain, active compounds read high; at 50.0 µM unless noted
This is part of a sample that, as a whole, favours compounds with a hit. Of some 79,000 tested, about 15% had one in any assay.
Answer rule not met if growth inhibition is under -10%, and rule met if it is -10% or more.

Known results for compounds:
O=C(CCl)Oc1ccc(C(=O)O)cc1 ... rule met
COc1ccc(/C=C2\N=C3N(Cc4ccccc4)C=C(N)N3C2=O)cc1 ... rule met
Oc1ccc(C(O)CN2CCCC2)cc1O (stereo not drawn) ... rule met
CN(C)Cc1ccccc1 ... rule met
O=C1C=C(C2=CC(=O)c3cccc(O)c3C2=O)C(=O)c2c(O)cccc21 ... rule not met
O=C(c1ccccc1)c1ccc(NC(=O)C(F)(F)F)cc1 ... rule met
O=c1n(-c2ccccc2)c(=O)n(-c2ccccc2)c(=O)n1-c1ccccc1 ... rule not met
O=P(CSCCO)(c1ccccc1)c1ccccc1 ... rule not met

Query: Identify whether the reported growth inhibition of the following compound is -10% or greater: CC1=C2CN(C(=O)OCC(C)C)CCC2C2=C(C(=O)c3ccccc3C2=O)C1C (stereo not drawn)
Result: rule met

Query: Identify whether the reported growth inhibition of the following compound is -10% or greater: CCCCCC[N+](C)(C)C
Result: rule not met

----------
- procedureDetails: NCI Yeast Anticancer Drug Screen. Data for the sgs1 mgt1 strain (AID 161);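 also: 0% = growth of cultures given vehicle only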
- conditionNotes: S. cerevisiae sgs1 mgt1 strain, active compounds read high; at 50.0 µM unless noted
About 79,000 compounds went through this panel and 15% of them were active in at least one assay; those are over-represented in the sample as a whole.
parameter: growth inhibition (%)
Field: numeric (%). Do not append units.

COC(=O)C(=O)C(C#N)c1ccccc1Cl (stereo unspecified) ... 0.35
Cc1ccc(N=Nc2ccc(C)cc2NC(=O)c2cccc3ccccc23)cc1 ... -12.2
CCCc1ccc(C)c(Br)c1 ... 0.9

Query: Item Cc1cc(=O)[nH]c2[nH]c(=O)ccc12 : provide growth inhibition
Result: -1.5

Query: Item Cc1ccc(S(=O)(=O)OC2CCSCC2)cc1 : provide growth inhibition
Result: 7.7

Query: Item CC1=Nc2ccccc2SC2(C1)C(C1COC(C)(C)O1)OC1OC(C)(C)OC12 (stereo unspecified) : provide growth inhibition
Result: 21.1

Query: Item C/C(=N\Nc1nc2ccccc2s1)c1ccc2c(c1)Sc1ccccc1O2 : provide growth inhibition
Result: 11.9

Query: Item O=C(O)CCc1cnc[nH]1 : provide growth inhibition
Result: 1.2

----------
- procedureDetails: NCI Yeast Anticancer Drug Screen. Data for the cln2 rad14 strain (AID 165);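 also: 0% = growth equal to vehicle treated cultures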
- conditionNotes: S. cerevisiae cln2 rad14 strain; at 50.0 µM unless noted
- Procedure: Growth inhibition of yeast strains with defined genetic alterations is measured as a screen for potential anti-cancer activity. Selected strains with alterations in DNA damage repair or cell cycle control were exposed to compounds and growth inhibition was measured relative to vehicle treated controls. The strain used in this assay is cln2 rad14
The panel holds about 79,000 compounds, 15% with a hit somewhere; the sample as a whole holds those more often. Active and inactive are the calls of the source. Rule as the data show it: active = growth inhibition above about 70%; inactive = the rest.
The reply should name one outcome from true (active), false (inactive)

Nc1nc(Cl)c(C=O)c(NCC2(CO)CC(CCc3ccccc3)C2)n1 (centres undefined) ... false
CC1CC1C(N)C1CC1C (centres undefined) ... false
COC1OC2COc3ccccc3OC2C2C1N2C(N)=O (centres undefined) ... false
O=C(NCCO)c1c(O)c2ccccc2[nH]c1=O ... false
CN(CCO)CCCC1COc2ccccc2O1 (centres undefined) ... false
OC(c1ccccc1)(c1ccccc1)C1/C(=C/c2ccccc2)C1Cc1ccccc1 (centres undefined) ... false
CCCCCCCC[Si](c1ccccc1)(c1ccccc1)c1ccccc1 ... false
CN1c2ccccc2C2CCCCC21 (centres undefined) ... false
COc1ccc(C(=O)C(CN(C)C)CN(C)C)c(OC)c1 ... false
OC[C@H]1N[C@H](CO)[C@@H](O)[C@H]1O ... false

Query: What is the recorded call for this compound in the test? O/N=C/c1ccco1
Result: false

Query: What is the recorded call for this compound in the test? C=C(C)c1ccc(C(C)C)cc1
Result: false

Query: What is the recorded call for this compound in the test? CSc1nnc(CCC(=O)Nc2cc(Cl)ccc2Cl)o1
Result: false

Query: What is the recorded call for this compound in the test? Clc1ccc2[nH]ncc2c1
Result: false

----------
List of growth inhibition values.
- procedureDetails: NCI Yeast Anticancer Drug Screen. Data for the rad50 strain (AID 155);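 also: 0% = growth of vehicle-only cultures of the same strain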
- conditionNotes: S. cerevisiae rad50 strain growth inhibition, active compounds read high; at 50.0 µM unless noted
This is part of a sample that, as a whole, favours compounds with a hit. Of some 79,000 tested, about 15% had one in any assay.
Field: numeric (%). Do not append units.

Past entries and their recorded results:
COC(=O)c1cc2ccc(OC(C)=O)c(OC(C)=O)c2cn1 ... 20.2
CCN(C(=O)c1ccc(C(=O)N(CC)c2cccc(C)c2)cc1)c1cccc(C)c1 ... -24.4
NC(=O)NN(Cc1ccc2c(c1)OCO2)N=O ... -7.25

Now consider a different molecule.
Query: Item O=Cc1c2cnc(c1O)CSCc1ccc(cc1)CSC2 : provide growth inhibition
Result: 9.55

----------
- procedureDetails: NCI Yeast Anticancer Drug Screen. Data for the bub3 strain (AID 167)
- conditionNotes: S. cerevisiae bub3 mutant strain, active compounds read high; at 50.0 µM unless noted
The panel holds about 79,000 compounds, 15% with a hit somewhere; the sample as a whole holds those more often.
parameter: growth inhibition (%)
Field: numeric (%). Do not append units.

Past entries and their recorded results:
O=C1c2ccccc2C(=O)C1c1ccc2ccccc2n1 ... 7.05
COC1CCC(/C=C(\C#N)C2CCC(C)CC2)CC1 (stereo unspecified) ... 30.2
CCN(CC)CCCNc1ncnc2c1C(c1ccccc1)c1ccccc1-2 (stereo unspecified) ... -4.85

Query: Item CC1(C)OC2COC(OCc3ccccc3)C(OCc3ccccc3)C2O1 (stereo unspecified) : provide growth inhibition
Result: -8.7

Query: Item Cc1ccc2ccccc2c1CN(C)C : provide growth inhibition
Result: -3.45

Query: Item CC(=O)OCC1OC(n2c(-c3ccccc3)c(N=Nc3ccc(C)cc3)c(C)c(C#N)c2=S)C(OC(C)=O)C(OC(C)=O)C1OC(C)=O (stereo unspecified) : provide growth inhibition
Result: -4.9

Query: Item NC(=O)C(c1ccccc1)C1(O)CCCCC1 (stereo unspecified) : provide growth inhibition
Result: 3.2

Query: Item NC(=S)N/N=C1\CCCc2ccccc21 : provide growth inhibition
Result: 7.15

Query: Item O=C1C2CCC2C(=O)N1c1ccc2ccccc2c1 (stereo unspecified) : provide growth inhibition
Result: 12.6

Query: Item O=C(O)COc1ccc([N+](=O)[O-])cc1[N+](=O)[O-] : provide growth inhibition
Result: 3.95

Query: Item Cc1nc(-c2cccnc2)sc1C(=O)CC(=O)C(=O)Nc1cccc(NC(=O)C(=O)CC(=O)c2sc(-c3cccnc3)nc2C)n1 : provide growth inhibition
Result: -12.9

----------
- procedureDetails: NCI Yeast Anticancer Drug Screen. Data for the sgs1 mgt1 strain (AID 161);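 also: 0% = growth of cultures given vehicle only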
- conditionNotes: S. cerevisiae sgs1 mgt1 strain, active compounds read high; at 50.0 µM unless noted
About 79,000 compounds went through this panel and 15% of them were active in at least one assay; those are over-represented in the sample as a whole.
Answer rule not met if growth inhibition is under 10%, and rule met if it is 10% or more.

Known results for compounds:
CC(C)COC(c1ccccc1)c1ccccc1 ... rule not met
Cc1ccc(S(=O)(=O)NC(=O)NC(C)C(=O)O)cc1 (stereo unspecified) ... rule not met
CCCCCCCCCCCC[N+](C)([O-])CCCCCC[N+](C)([O-])CCCCCCCCCCCC (stereo unspecified) ... rule met

Query: Identify whether the reported growth inhibition of the following compound is 10% or greater: COc1cc(CNc2nc3ccc(C(F)(F)F)cc3nc2-c2ccccc2)cc(OC)c1OC
Result: rule not met

Query: Identify whether the reported growth inhibition of the following compound is 10% or greater: CCN(CC)CCNc1cc(OC)c(OC)cc1[N+](=O)[O-]
Result: rule not met

Query: Identify whether the reported growth inhibition of the following compound is 10% or greater: CC1(C)N=C(N)N=C(N)N1CCCOc1ccc(N)cc1
Result: rule met

Query: Identify whether the reported growth inhibition of the following compound is 10% or greater: CCCCCCCCCOc1ccc(C=Nc2ccc(C)cc2)cc1
Result: rule not met

Query: Identify whether the reported growth inhibition of the following compound is 10% or greater: ClC(Cl)CN(Cc1ccccc1)c1ncc[nH]1
Result: rule met

----------
- procedureDetails: NCI Yeast Anticancer Drug Screen. Data for the bub3 strain (AID 167)
- conditionNotes: S. cerevisiae bub3 mutant strain, active compounds read high; at 50.0 µM unless noted
About 79,000 compounds went through this panel and 15% of them were active in at least one assay; those are over-represented in the sample as a whole.
List of growth inhibition values.
Field: numeric (%). Do not append units.

Past entries and their recorded results:
CCOP(=O)(C/C(=N/NC(C)(C)C)C(=O)Nc1nc2ccc(C)cc2s1)OCC ... -0.5
CN(C)N=Nc1ccc(/C=C/C(=O)O)cc1 ... 8.55
Cc1ccccc1C(=O)c1cccc2cccc(C(=O)c3ccccc3C)c12 ... 10.8
C[N+]1(C)CCc2cc(O)c(O)cc2C1Cc1ccc(O)c(O)c1 (stereo not given) ... -36.8
CC(=O)CC(=O)Nc1ccc2ccccc2c1 ... -37.9
CCc1nnc2c(C)c(C)nc(C)n12 ... 17.2

Query: Item CC1C(c2ccccc2)OCCN1C(N)=S (stereo not given) : provide growth inhibition
Result: 24.1

Query: Item O=C(c1ccccc1)N1c2ccc([N+](=O)[O-])cc2Sc2cc([N+](=O)[O-])ccc21 : provide growth inhibition
Result: -10.7

Query: Item CN(N=O)C(=O)NCCCCCNC(=O)N(C)N=O : provide growth inhibition
Result: 10.5

Query: Item C(CCCC1CO1)CCC1CO1 (stereo not given) : provide growth inhibition
Result: 11.1

Query: Item NNC(=O)c1nc2ccccc2s1 : provide growth inhibition
Result: 8.95

Query: Item CCOC(=O)c1ccc(N=C2S/C(=C\C(=S)Nc3ccccc3)N(c3ccccc3)C2=Nc2ccc(C(=O)OCC)cc2)cc1 : provide growth inhibition
Result: 19.2

Query: Item NC(=O)c1ccccc1OC(=O)Nc1ccc(F)c([N+](=O)[O-])c1 : provide growth inhibition
Result: 20.7

Query: Item Cc1ccc(NC(=O)c2cccc(OP(=O)(O)Nc3ccc(C)cc3)c2)cc1 : provide growth inhibition
Result: -0.95

Query: Item N#Cc1[nH]c(=O)n(-c2ccc([N+](=O)[O-])cc2)c1N : provide growth inhibition
Result: -12.1

Query: Item Cc1[nH]c2c(C)ccc(C)c2c(=O)c1Br : provide growth inhibition
Result: -1.7

Query: Item CSCCSC : provide growth inhibition
Result: 3.4

Query: Item CN1c2ccccc2C(=O)N2C(=O)CCC21C (stereo not given) : provide growth inhibition
Result: -13.4

Query: Item NC1(CC(=O)O)CCN(Cc2ccccc2)CC1 : provide growth inhibition
Result: -1.15

Query: Item Cc1ccc(NC(=O)Oc2ccc(C(C)(C)C)cc2)cc1NC(=O)Oc1ccc(C(C)(C)C)cc1 : provide growth inhibition
Result: 10.7

Query: Item NS(=O)(=O)c1ccc(N=Nc2ncccc2O)cc1 : provide growth inhibition
Result: -44
